Can you tell me Plant response rating (scale of 0 to 100 where 0 is no effect and 100 is complete control) for the items I'm about to list?
# Test system: blackgrass
# test.method.notes: Test C postemergence
# Format: in vivo, Alopecurus myosuroides
# experimental.setup: 31 g ai/ha
# Source text: […]
Numbers only.

In the examples that follow, each entry is paired with its recorded Plant response rating (scale of 0 to 100 where 0 is no effect and 100 is complete control).
Endpoint output: Plant response rating (scale of 0 to 100 where 0 is no effect and 100 is complete control) of `CCOc1nc(-c2ccc(Cl)cc2)nn1Cc1ccnc(C(F)(F)F)c1` . Value?
35

Which Plant response rating (scale of 0 to 100 where 0 is no effect and 100 is complete control) is reported for this compound? `COc1nc(-c2ccc(F)cc2)nn1Cc1ccnc(C(F)(F)F)c1`
5

Need Plant response rating (scale of 0 to 100 where 0 is no effect and 100 is complete control) of `CCc1nc(-c2ccc(C(F)(F)F)cc2)nn1Cc1ccnc(C(F)(F)F)c1` , thanks.
5

Request the reported Plant response rating (scale of 0 to 100 where 0 is no effect and 100 is complete control) associated with `COc1nc(-c2ccccc2)nn1Cc1ccnc(C(F)(F)F)c1`
5

Now look at this entry.
Plant response rating (scale of 0 to 100 where 0 is no effect and 100 is complete control) lookup needed for `FC(F)(F)COc1nc(-c2ccc(Cl)cc2)nn1Cc1ccnc(C(F)(F)F)c1` , thanks.
35
